# Experimental System: Human RAR-related Orphan Receptor Gamma (RORγ) (Homo sapiens)
# Sequence (P51449 269-508 limits assumed): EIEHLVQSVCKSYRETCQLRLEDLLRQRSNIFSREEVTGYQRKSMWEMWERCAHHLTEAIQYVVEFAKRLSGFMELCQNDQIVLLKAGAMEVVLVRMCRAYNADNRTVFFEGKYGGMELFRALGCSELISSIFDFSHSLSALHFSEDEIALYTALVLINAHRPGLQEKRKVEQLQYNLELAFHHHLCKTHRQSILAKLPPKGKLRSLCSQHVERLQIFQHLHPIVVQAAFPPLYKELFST
# Experiment Description: RORγ assay (GAL4-RORγ hybrid luciferase reporter, Indigo Biosciences)
# Condition Info: inverse-agonist activity, GAL4-RORγ reporter cells, 23 hours
Would you mind telling me the reported IC50 of each entry?
Numbers only, in nM.

Worked examples follow.
Compound: C[C@H]1C(=O)C(C#N)=C[C@@]2(C)c3c(c(-c4cncnc4)nn3-c3ccc(-c4ccccc4)cc3)CC[C@H]12 [T70]
Quantity Unit: nM
Meas Value: 75

Compound: C[C@H]1C(=O)C(C#N)=C[C@@]2(C)c3nc(-c4cccc(-c5ccncc5)c4)n(-c4cccc(F)c4)c3CC[C@H]12 [T146]
Quantity Unit: nM
Meas Value: 106

Compound: CC(C)c1ccc(-c2nc3c(n2Cc2ccc(Cl)cc2)CC[C@@H]2[C@@H](C)C(=O)C(C#N)=C[C@@]32C)cc1 [T169]
Quantity Unit: nM
Meas Value: 371

Compound: C[C@H]1C(=O)C(C#N)=C[C@@]2(C)c3nc(-c4cccc(N5CCOCC5)c4)n(-c4cccc(F)c4)c3CC[C@H]12 [T143]
Quantity Unit: nM
Meas Value: 95

Provide IC50 values for the following items, in order.
1. Cc1noc(-c2ccc(-n3nc(-c4ccc(F)cc4)c4c3[C@]3(C)C=C(C#N)C(=O)[C@H](C)[C@H]3CC4)cc2)n1 [T106]
2. C[C@H]1C(=O)C(C#N)=C[C@@]2(C)c3c(c(-c4ccccc4)nn3-c3ccc(-c4ccccc4CO)cc3)CC[C@H]12 [T43]
3. C[C@H]1C(=O)C(C#N)=C[C@@]2(C)c3nc(-c4cccc(Cl)c4)n(-c4cnn(C)c4)c3CC[C@H]12 [T157]
4. Cc1nc(-c2ccc(-n3nc(-c4cccnc4)c4c3[C@]3(C)C=C(C#N)C(=O)[C@H](C)[C@H]3CC4)cc2)no1 [T184]
5. C[C@H]1C(=O)C(C#N)=C[C@@]2(C)c3nn(-c4ccc(-c5ccccc5)cc4)c(-c4ccncc4)c3CC[C@H]12 [T124]

Output:
1: 83; 2: 53; 3: 103; 4: 116; 5: 123

Ref: patent US11993574B2
